Numbers sourced from ChEMBL document CHEMBL3865796.

- Protocol text: Selectivity index, ratio of CC50 for human MT4 cells to EC50 for wild type HIV-1 3B reverse transcriptase infected in human MT4 cells
- Assay type: toxicity, cell-based
- Settings: read-out: Ratio CC50/EC50
Measured property: selectivity ratio

The recorded selectivity ratio for entry N#Cc1cc(F)c(C(=O)c2ccnc(Cl)n2)c(F)c1 equals < 0.54

Per the records, this compound ( N#Cc1ccc(Nc2cc(F)c(C(=O)c3ccnc(Nc4ccc(C#N)cc4)n3)c(F)c2)cc1 ) has selectivity ratio equal to 167

response.value for N#Cc1ccc(Nc2nccc(C(=O)c3ccc(C#N)cc3)n2)cc1 (field: selectivity ratio) = > 12.7

O=C(c1ccnc(Cl)n1)c1c(F)cc(F)cc1F yielded selectivity ratio of < 0.7

The reported value for N#Cc1ccc(Nc2nccc(C(O)c3ccc(C#N)cc3)n2)cc1 (stereo unspecified) in terms of selectivity ratio is > 15.4

Looking up COc1ccc(C(=O)c2ccnc(Nc3ccc(C#N)cc3)n2)cc1 , I see its selectivity ratio listed as > 70

// field: selectivity ratio; key: N#Cc1ccc(Nc2nccc(C(=O)c3c(F)cc(F)cc3F)n2)cc1 ; value = > 1680

Kindly note the recorded selectivity ratio for N#Cc1ccc(Nc2ncc(Br)c(C(=O)c3c(F)cc(O)cc3F)n2)cc1 , which is 1

According to the records, this compound COc1ccc(C(=O)c2ccnc(Cl)n2)cc1 displays selectivity ratio of < 0.69

selectivity ratio in this record for N#Cc1ccc(Nc2nc(C(=O)c3ccc(C#N)cc3)ncc2Br)cc1 : > 2.06

Documented selectivity ratio of N#Cc1ccc(Nc2ccnc(C(=O)c3ccc(C#N)cc3)n2)cc1 : > 1.33

###

Exercise: state measured CC50 at 120 h for each of the compounds provided.
- Protocol text: Cytotoxicity against human MT4 cells assessed as decrease in cell viability after 5 days by cell titer glo based luciferase reporter gene assay
- Type: toxicity
Just the number in µM, nothing appended.

The compound listed as COc1ccc(C(=O)c2ccnc(Cl)n2)cc1 shows CC50 at 120 h equal to 39.6

Sample N#Cc1cc(F)c(C(=O)c2ccnc(Cl)n2)c(F)c1 ; CC50 at 120 h observed: 30.5

get_value(item= COc1ccc(C(=O)c2nc(Nc3ccc(C#N)cc3)ncc2Br)cc1 , readout=CC50 at 120 h) returns 2.45

The reported value for N#Cc1ccc(C(=O)c2nccc(Cl)n2)cc1 in terms of CC50 at 120 h is 16.5

get_value(item= Cc1cc(C#N)cc(C)c1Oc1nc(Nc2ccc(C#N)cc2)nc(N)c1Br [ETRAVIRINE] , readout=CC50 at 120 h) returns 5.88

get_value(item= O=C1Nc2ccc(Cl)cc2[C@@](C#CC2CC2)(C(F)(F)F)O1 [EFAVIRENZ] , readout=CC50 at 120 h) returns 20.6

For this compound ( O=C(c1ccnc(Cl)n1)c1c(F)cc(F)cc1F ), measured CC50 at 120 h is 40.1

COc1cc(F)c(C(=O)c2nc(Nc3ccc(C#N)cc3)ncc2Br)c(F)c1 yielded CC50 at 120 h of 38.7

# CC50 at 120 h of N#Cc1ccc(Nc2cc(F)c(C(=O)c3ccnc(Nc4ccc(C#N)cc4)n3)c(F)c2)cc1 = 51.9

For N#Cc1ccc(C(=O)c2ccnc(Cl)n2)cc1 the compound record lists CC50 at 120 h as 31.9
